Below, each of the compounds is paired with its reported growth inhibition value.
Assay: antimalarial activity against Dd2 strain (AID 2302);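 also: 0% = DMSO untreated growth and 100% = chloroquine plus artemisinin killed control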
Conditions: P. falciparum Dd2 in RBCs, LDH growth readout, 72 h; at 2 µM; stronger effect = higher value
Calls of active or inactive are those of the source.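 The calls were made as follows: active = growth inhibition above 50% at the single 2 µM test dose, taken to imply half-maximal potency below 2 µM; inactive = the rest.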
Readout Kind: growth inhibition

> print(dat)
                                   compound  measured.result
1  O=C(/C=C/c1ccc(Cl)cc1)NCCCCCN1CCCC(C(=O)Nc2ccc(F)c(Cl)c2)C1 (stereo not given)    6% (inactive)
2  O=C(NCC1CCN(CC2CCCCC2)C1)c1cc(-c2cccc(C(F)(F)F)c2)cs1 (stereo not given)   21% (inactive)
3  N#Cc1ccc(-c2ccc(C(=O)NC3CCN(CCN4CCc5c(cccc5C(F)(F)F)C4)CC3)cc2)cc1     51% (active)
4  COC(=O)c1cccc(NC(=O)NC2CCN(c3ccnc(NCc4ccc(F)cc4)n3)CC2)c1   39% (inactive)
5  COc1ccc(NC(=O)CSc2nc(-c3ccccc3Cl)ns2)cc1     75% (active)

###

Molecular target: L-lactate dehydrogenase (Plasmodium falciparum (isolate CDC / Honduras))
Assay: PfLDH activity inhibition – cell lysate, 3D7 strain, counter-screen for P. falciparum growth inhibition project (AID 2304);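 also: 0% = vehicle and 100% = reference inhibitor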
Details: P. falciparum 3D7 crude extract, LDH APAD/NBT absorbance; at 2 µM; stronger effect = higher value
Readout Kind: inhibition (%)

> print(dat)
                                    compound  measured.result
 1  Cc1noc(C)c1-c1cccc(CNCc2ccc(-c3ccc(-c4nc5ccc(F)cc5[nH]4)cc3)cc2)c1                4
 2  COc1ccccc1NC(=O)Nc1ccc(-c2cccc(-c3nc4ccccc4[nH]3)c2)cc1                0
 3  CN1CCC(C(=O)N(Cc2ccc(-c3ccc(CNCCc4ccc(S(C)(=O)=O)cc4)cn3)cc2)Cc2cccc(F)c2)CC1               -4
 4  CCCCCCn1c(Sc2ccc(C#N)c([N+](=O)[O-])c2)nnc1-c1cccc(Cl)c1                1
 5  CCCc1cn2c3c(cc(C(=O)N[C@@H](Cc4ccccc4)[C@H](O)CNC4CCCCC4)cc13)N(C)S(=O)(=O)CC2               -2
 6  COc1ccc2nccc([C@@H](O)CN3CCC(NC(=O)c4ccc(Cl)c(Cl)c4)CC3)c2c1               -5
 7  O=C(Nc1ccc(N2CCN(Cc3c[nH]c4cc(F)ccc34)CC2)cc1)c1ccccc1-c1ccc(C(F)(F)F)cc1                9
 8  NC1=NC(c2ccccc2)(c2ccccc2)C(=O)N1Cc1ccc(-c2ccncc2)cc1                5
 9  C[C@@H](Oc1cc(-n2cnc3cc(SCCN4CCN(C)CC4)ccc32)sc1C(N)=O)c1ccccc1Cl               -1
10             CCOC(=O)C(C(=O)OCC)c1nc(C)ns1               -3
11    CCc1nn2c(Nc3ccncc3)cc(C)nc2c1-c1ccccc1                0
12  O=C(Nc1ccc(-c2cccc(-c3nc4ccccc4[nH]3)c2)cc1)Nc1ccsc1               -7
13  CC(C)N1CCC(Oc2ccc(CN3CCN(C(c4ccccc4)c4ccc(Cl)cc4)CC3)cc2)CC1 (stereo not drawn)                4
14  CCCCc1cc(N2CCC(NC(C)=O)C2)nc(Nc2ccc(C)cc2)n1 (stereo not drawn)               -8
15  COc1cc(N(Cc2ccccc2C)S(=O)(=O)Cc2ccccc2[N+](=O)[O-])c(OC)cc1Cl               -2
16  COc1cc2c(cc1OC)CN(CCCCc1ccc(NC(=O)c3cc(Cl)cc(Cl)c3)cc1)CC2               -3
17  CC(=O)Nc1csc(-c2cnc(/C=C(\C)C[C@@H]3OC[C@H](C[C@@H]4O[C@H]4[C@@H](C)[C@H](C)O)[C@@H](O)[C@H]3O)o2)c1                0
18  Cc1cc(F)ccc1Nc1nc(N(C)c2ccccc2)c2cc(OCCCN(C)C)ccc2n1                4

###

Assay: human hepatoma cell viability loss – ATP luminescence, cytotoxicity control for P. falciparum antimalarial project, primary screen (AID 2303);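 also: 0% = DMSO wells and 100% = digitonin-killed cells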
Conditions: HepG2 viability, 24-48 h, at 10 µM
The source made the active and inactive calls.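 How the source made its calls: active means inhibition above 50%; inactive means the rest.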
Classes used: true (active), false (inactive)

> print(dat)
                                    compound  answer.label
 1      CCCCCCN1CCC(NCc2cccc(-n3ccnc3)c2)CC1         false
 2  NC1=NC2(CCCCC2)N(OCCCOc2cccc3ccccc23)C(N)=N1          true
 3          Cc1cc(Nc2ccc3c(c2)CCC3)n2ncnc2n1         false
 4  CC(=O)N(C)c1ccc(C(=O)Nc2cccc(-c3cccc(-c4nc5c(C)cccc5[nH]4)c3)c2)cc1         false
 5   c1ccc(-c2nnc(-c3ccccn3)nc2NC2CCCCC2)cc1          true
 6  CN(C)CC(O)C(c1ccccc1)c1cccc(Br)c1 (stereo not given)         false
 7  Cc1cccc2[nH]c(-c3ccc(-c4ccc(NC(=O)C(C)CN(C)C)cc4)cc3)nc12 (stereo not given)         false
 8  C=CCn1c(=N)c(C(=O)NC2CCCCC2)cc2c(=O)n3cccc(C)c3nc21         false
 9  COc1ccccc1-n1ccnc1SCC(=O)Nc1cc(C(F)(F)F)ccc1Cl         false
10  Cc1ccc2nc(C)cc(NN=Cc3ccc([N+](=O)[O-])o3)c2c1         false

###

Assay: antimalarial activity against Dd2 strain (AID 2302);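 also: 0% = DMSO untreated growth and 100% = chloroquine plus artemisinin killed control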
Details: P. falciparum Dd2 in RBCs, LDH growth readout, 72 h; at 2 µM; stronger effect = higher value
Active and inactive are the calls of the source.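 The calls were made as follows: active = growth inhibition above 50% at the single 2 µM test dose, taken to imply half-maximal potency below 2 µM; inactive = the rest.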
Recorded growth inhibition values for a group of compounds are listed next.
Readout Kind: growth inhibition

> print(dat)
                                    compound       readout.kind  measured.result
 1  COc1ccc2nccc([C@@H](O)CN3CCC(NC(=O)/C=C/c4cc(F)cc(NC(C)=O)c4)CC3)c2c1  growth inhibition   49% (inactive)
 2  CC(C)C[C@H](NC(=O)c1ccc(OCCN2CCOCC2)cc1)C(=O)N[C@H](/C=N/NC(=O)OC(C)(C)C)CCc1ccccc1  growth inhibition     87% (active)
 3  O=C(Nc1ccccc1O)c1ccc(S(=O)(=O)c2ccc(Cl)cc2)cc1  growth inhibition     85% (active)
 4  Cc1cccc2[nH]c(-c3cccc(-c4ccc(NC(=O)Cc5cnc[nH]5)cc4)c3)nc12  growth inhibition     93% (active)
 5  Cc1ccc2nc(C)cc(NN=Cc3ccc([N+](=O)[O-])o3)c2c1  growth inhibition     99% (active)
 6  O=C(Nc1cccc(-c2ccc(-c3nc4ccc(F)cc4[nH]3)cc2)c1)c1ccncc1  growth inhibition     96% (active)
 7  CCN(CCCN1CCCCC1)c1cc(C)nc(Nc2cc(Cl)ccc2C)n1  growth inhibition   37% (inactive)
 8  CC1CC1C(=O)NC1CCN(CC2(c3ccccc3)CCCCC2)CC1 (centres undefined)  growth inhibition     95% (active)
 9     COc1ccc2nccc(NN=Cc3ccc(N(C)C)cc3)c2c1  growth inhibition     95% (active)
10  Cc1cc(N2CCCC2)nc(Nc2ccc(NC(=O)c3cccc(F)c3)cc2)n1  growth inhibition   28% (inactive)
11  CS(=O)(=O)Nc1ccc2[nH]cc(C3CCN(CCCCCNC(=O)/C=C/c4ccc(Cl)c(Cl)c4)CC3)c2c1  growth inhibition    0% (inactive)
12  CC(=O)C1=NN(c2ccc(Cl)cc2)C(c2cccs2)N1c1ccccc1 (centres undefined)  growth inhibition     70% (active)
13       CCOC(=O)c1c[nH]c2c(ccc3ccccc32)c1=O  growth inhibition     96% (active)
14  COc1ccc2nccc([C@@H](O)CN3CCC(NC(=O)c4cc5c(Cl)cc(Cl)cc5[nH]4)CC3)c2c1  growth inhibition     98% (active)
15  Cc1cc(O)c(CN(C)Cc2ccc3c(c2)OCCO3)cc1C(C)C  growth inhibition   47% (inactive)
16  O=C(/C=C/c1ccc(Cl)c(Cl)c1)N1CCC(CN2CCC(Cc3c[nH]c4ccccc34)CC2)CC1  growth inhibition   13% (inactive)
17  CCNc1cc(C(=O)N[C@@H](Cc2cc(F)cc(F)c2)[C@H](O)CNCc2cccc(C(F)(F)F)c2)cc(N2CCCCS2(=O)=O)c1  growth inhibition     80% (active)
18  Cc1ccc(Nc2nc(C)cc(N3CCN(c4ccccc4)CC3)n2)cc1  growth inhibition     72% (active)
19  O=C(C=Cc1ccc(Cl)c(Cl)c1)NCCCCCN1CCCC(CCCNS(=O)(=O)c2ccc(Br)cc2)C1 (centres undefined)  growth inhibition    5% (inactive)
